Attribution: the supplement of paper PMC12645437

# system: T1, CRBN, Q96SW2;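 note: pooled lentiviral library of zinc finger degron-EGFP fusions in mCherry-positive Jurkat cells, FACS-sorted after compound exposure, with degron abundance counted by next-generation sequencing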
# T1 chain: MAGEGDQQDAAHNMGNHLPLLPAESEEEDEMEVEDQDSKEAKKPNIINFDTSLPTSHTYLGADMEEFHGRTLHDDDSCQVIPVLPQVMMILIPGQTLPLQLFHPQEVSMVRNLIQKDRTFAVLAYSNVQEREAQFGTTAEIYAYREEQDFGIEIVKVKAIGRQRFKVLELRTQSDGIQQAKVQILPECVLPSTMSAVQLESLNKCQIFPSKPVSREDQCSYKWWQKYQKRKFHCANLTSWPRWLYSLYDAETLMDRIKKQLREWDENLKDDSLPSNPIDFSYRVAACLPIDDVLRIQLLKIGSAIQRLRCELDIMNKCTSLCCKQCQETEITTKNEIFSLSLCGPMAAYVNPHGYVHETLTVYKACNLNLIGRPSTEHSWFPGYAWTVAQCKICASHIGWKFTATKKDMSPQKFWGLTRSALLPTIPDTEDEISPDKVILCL
# measurement notes: log2 fold change of degron read counts, EGFP-low vs EGFP+ sorted cells (limma voom), compound-induced degradation; higher = more compound-induced degradation of the degron-EGFP fusion; degrons are variants of IKZF1/3 zinc finger 2; compound dose not given here
# study conditions: Jurkat; 18 h; compound: compound 22 (5-morpholino-thalidomide)
Whole data set: some 8,300 sequences, median “log2 fold change of degron read counts, EGFP-low vs EGFP+ sorted cells (limma voom), compound-induced degradation” near -1.1, cut for the highest 2% near 3.2. Shown is part of a subset that was picked to be rich in the highest values.
Kindly supply the reported log2 fold change of degron read counts values for the records listed here.
Numbers only.

For orientation, consider the following solved cases.
biosequence	reported metric	data value
FTCPVCGASFTQKGNLLRHIKL [46F_47T_49P_50V_52G_53A_54S_55F_67L_, Q9UKT9]	log2 fold change of degron read counts	2.72
LLCEICGFQCTQKGNLLRHIKL [46L_47L_49E_50I_52G_53F_54Q_55C_67L_, Q9UKT9]	log2 fold change of degron read counts	-0.719
FLCDVCGALFTQKGNLLRHIKL [46F_47L_49D_50V_52G_53A_54L_55F_67L_, Q9UKT9]	log2 fold change of degron read counts	-2.28
LQCPICGFTCTQKGNLLRHIKL [46L_47Q_49P_50I_52G_53F_54T_55C_67L_, Q9UKT9]	log2 fold change of degron read counts	2.59
LECEICGFQCTQKGNLLRHIKL [46L_47E_49E_50I_52G_53F_54Q_55C_67L_, Q9UKT9]	log2 fold change of degron read counts	-1.36
LSCEICGFQCTQKGNLLRHIKL [46L_47S_49E_50I_52G_53F_54Q_55C_67L_, Q9UKT9]	log2 fold change of degron read counts	1.95
FACPVCGASFTQKGNLLRHIKL [46F_47A_49P_50V_52G_53A_54S_55F_67L_, Q9UKT9]	log2 fold change of degron read counts	2.15
FNCNQCGRWFTQKGNLLRHIKL [46F_47N_49N_50Q_52G_53R_54W_55F_67L_, Q9UKT9]	log2 fold change of degron read counts	-2.2
FFCNVCGASFTQKGNLLRHIKL [46F_47F_49N_50V_52G_53A_54S_55F_67L_, Q9UKT9]	log2 fold change of degron read counts	1.8
FGCNICGACFTQKGNLLRHIKL [46F_47G_49N_50I_52G_53A_54C_55F_67L_, Q9UKT9]	log2 fold change of degron read counts	2.09

Could you tell me log2 fold change of degron read counts for each of these sequences? They are listed below.
1. LRCPICGFTCTQKGNLLRHIKL [46L_47R_49P_50I_52G_53F_54T_55C_67L_, Q9UKT9]
2. LHCPICGFTCTQKGNLLRHIKL [46L_47H_49P_50I_52G_53F_54T_55C_67L_, Q9UKT9]
3. FWCEICGAKFTQKGNLLRHIKL [46F_47W_49E_50I_52G_53A_54K_55F_67L_, Q9UKT9]
4. FNCPICGHTFTQKGNLLRHIKL [46F_47N_49P_50I_52G_53H_54T_55F_67L_, Q9UKT9]
5. LCCEICGFQCTQKGNLLRHIKL [46L_47C_49E_50I_52G_53F_54Q_55C_67L_, Q9UKT9]
6. FQCPVCGASFTQKGNLLRHIKL [46F_47Q_49P_50V_52G_53A_54S_55F_67L_, Q9UKT9]
7. FTCEICGAKFTQKGNLLRHIKL [46F_47T_49E_50I_52G_53A_54K_55F_67L_, Q9UKT9]
8. FSCPICGHQFTQKGNLLRHIKL [46F_47S_49P_50I_52G_53H_54Q_55F_67L_, Q9UKT9]

Completion:
[0.593, 2.97, 3.75, -2.29, 1.72, 2.72, 1.9, -3.17]
